Data credit: patent US12440440B2

- Experimental Details: Predicted esketamine plasma concentration for 0.20 mg/kg 40 minutes intravenous infusion
- Assay type: in vivo
- Condition Context: human, 0.2 mg/kg, predicted on the basis of literature data
Readout Label: concentration at 40 min

// sample CN[C@]1(c2ccccc2Cl)CCCCC1=O , its concentration at 40 min was 60 to 100 ng/mL
